All values here come from ChEMBL document CHEMBL3632502.

# Test Method Notes: Neuroprotective activity against tetracycline deficiency-mediated cell viability loss in human MC65 cells at 1 uM after 72 hrs by MTT assay relative to control
# Format: functional
Quantity Kind: Activity

>>> assay_value("COc1cc(/C=C/C(=O)/C(Cc2cn(CCCCCCCC(=O)NCCOCCOCCOCC(=O)O[C@H]3CC[C@@]4(C)C(=CC[C@H]5[C@@H]6C[C@@H]7O[C@]8(CC[C@@H](C)CO8)[C@@H](C)[C@@H]7[C@@]6(C)CC[C@@H]54)C3)nn2)=C(O)/C=C/c2ccc(O)c(OC)c2)ccc1O")
">=80%"
>>> assay_value("COc1cc(/C=C/C(=O)/C(Cc2cn(CCCCCC(=O)NCCOCCOCCOCC(=O)O[C@H]3CC[C@@]4(C)C(=CC[C@H]5[C@@H]6C[C@@H]7O[C@]8(CC[C@@H](C)CO8)[C@@H](C)[C@@H]7[C@@]6(C)CC[C@@H]54)C3)nn2)=C(O)/C=C/c2ccc(O)c(OC)c2)ccc1O")
">=80%"
>>> assay_value("COc1cc(/C=C/C(=O)/C(Cc2cn(CCCCC(=O)NCCOCCOCCOCC(=O)O[C@H]3CC[C@@]4(C)C(=CC[C@H]5[C@@H]6C[C@@H]7O[C@]8(CC[C@@H](C)CO8)[C@@H](C)[C@@H]7[C@@]6(C)CC[C@@H]54)C3)nn2)=C(O)/C=C/c2ccc(O)c(OC)c2)ccc1O")
">=80%"
>>> assay_value("COc1cc(/C=C/C(=O)/C(Cc2cn(CCOCCOCCNC(=O)CCC(=O)O[C@H]3CC[C@@]4(C)C(=CC[C@H]5[C@@H]6C[C@@H]7O[C@]8(CC[C@@H](C)CO8)[C@@H](C)[C@@H]7[C@@]6(C)CC[C@@H]54)C3)nn2)=C(O)/C=C/c2ccc(O)c(OC)c2)ccc1O")
">=80%"
